- Tgt: recombinant N-terminal MLH1 (residues 15-340) (Homo sapiens, UniProt P40692)
- Construct: recombinant N-terminal MLH1 (residues 15-340)
- Assay Procedure: Fluorescence Polarisation Assay for MLH1
- Measurement Setup: fluorescence polarisation probe displacement; 100 nM N-terminal MLH1, 5 nM probe compound
pIC50: −log10 of the molar value.
# pIC50 annotations

Illustrative cases are given below, each with its answer.
>  <Molecule>
O=C(c1c(O)cc(O)cc1OCc1ccccc1)N1CCc2cccc(Nc3ccnnc3)c2C1

>  <Reported Result>
> 6.00

$$$$
>  <Molecule>
Cc1cccc(COc2cc(O)cc(O)c2C(=O)N2CCc3cccc(N[C@H]4CCOC4)c3C2)c1

>  <Reported Result>
> 6.00

$$$$
>  <Molecule>
CN(C)Cc1ccc2c(c1)CCN(C(=O)c1c(O)cc(O)cc1OCc1ccccc1)C2

>  <Reported Result>
5.00 to 6.00

$$$$
>  <Molecule>
O=C(c1c(O)cc(O)cc1OCc1ccccc1)N1CCc2cccc(Nc3ccc(=O)[nH]c3)c2C1

>  <Reported Result>
> 6.00

$$$$
>  <Molecule>
O=C(c1c(O)cc(O)cc1OCC1CC1)N1Cc2cccc(NC3CCOC3)c2C1 (stereo not shown)

>  <Reported Result>
> 6.00

$$$$

IN: Dear colleague, please send me the reported pIC50 for O=C(c1c(O)cc(O)cc1OCc1ccccc1)N1Cc2cccc(NC3CCCOC3)c2C1 (single isomer, unassigned) [Example 31] when you can.
OUT: 5.00 to 6.00

IN: Dear colleague, please send me the reported pIC50 for CC(=O)N1CC[C@H](Nc2cccc3c2CN(C(=O)c2c(O)cc(O)cc2OCc2ccccc2)CC3)C1 when you can.
OUT: > 6.00

IN: Dear colleague, please send me the reported pIC50 for O=C(c1c(O)cc(O)cc1OCc1ccccc1)N1CCc2cccc(Nc3cnccn3)c2C1 when you can.
OUT: 5.00 to 6.00

IN: Dear colleague, please send me the reported pIC50 for N#CC1CC(Oc2cccc3c2CN(C(=O)c2c(O)cc(O)cc2OCc2ccccc2)C3)C1 (stereo not shown) when you can.
OUT: 5.00 to 6.00

IN: Dear colleague, please send me the reported pIC50 for O=C(c1c(O)cc(O)cc1OCc1ccc(F)cc1)N1Cc2cccc(NC3CCOC3)c2C1 (stereo not shown) when you can.
OUT: > 6.00

IN: Dear colleague, please send me the reported pIC50 for Cc1c[nH]c(=O)cc1Nc1cccc2c1CN(C(=O)c1c(O)cc(O)cc1OCc1ccccc1)C2 when you can.
OUT: 5.00 to 6.00

IN: Dear colleague, please send me the reported pIC50 for COc1ccc2c(c1)CN(C(=O)c1c(O)cc(O)cc1OCc1ccccc1)CC2 when you can.
OUT: 5.00 to 6.00

IN: Dear colleague, please send me the reported pIC50 for O=C(c1c(O)cc(O)cc1OCc1ccccc1)N1CCc2nccc(N[C@H]3CCOC3)c2C1 when you can.
OUT: > 6.00

IN: Dear colleague, please send me the reported pIC50 for CN1CCC(Oc2cc3c(c(N[C@H]4CCOC4)c2)CN(C(=O)c2c(O)cc(O)cc2OCc2ccccc2)CC3)CC1 when you can.
OUT: > 6.00

IN: Dear colleague, please send me the reported pIC50 for O=C(c1c(O)cc(O)cc1OCc1ccccc1)N1Cc2cccc(NC3CCOCC3)c2C1 when you can.
OUT: > 6.00

IN: Dear colleague, please send me the reported pIC50 for O=C(c1c(O)cc(O)cc1OCC1CCCCC1)N1CCc2cccc(NC3CCOC3)c2C1 (stereo not shown) when you can.
OUT: 5.00 to 6.00

----------
- Tgt: recombinant N-terminal MLH1 (residues 15-340) (Homo sapiens, UniProt P40692)
- Construct: recombinant N-terminal MLH1 (residues 15-340)
- Sequence (P40692 15-340): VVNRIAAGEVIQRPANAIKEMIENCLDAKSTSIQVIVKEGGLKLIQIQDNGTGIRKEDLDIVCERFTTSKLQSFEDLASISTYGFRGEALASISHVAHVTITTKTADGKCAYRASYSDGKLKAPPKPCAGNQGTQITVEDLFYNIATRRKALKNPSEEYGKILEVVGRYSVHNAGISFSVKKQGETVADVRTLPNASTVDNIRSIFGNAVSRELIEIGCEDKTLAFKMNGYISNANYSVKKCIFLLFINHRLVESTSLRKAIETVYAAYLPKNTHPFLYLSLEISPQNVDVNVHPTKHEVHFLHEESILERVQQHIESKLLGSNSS
- Assay Procedure: Fluorescence Polarisation Assay for MLH1
- Assay type: binding
- Measurement Setup: fluorescence polarisation probe displacement; 100 nM N-terminal MLH1, 5 nM probe compound
# IC50 annotations

Illustrative cases are given below, each with its answer.
>  <Compound>
CN1CC(Nc2cccc3c2CN(C(=O)c2c(O)cc(O)cc2OCc2ccccc2)CC3)CC1=O (single isomer, unassigned) [Example 62]

>  <IC50>
< 1000 nM

$$$$
>  <Compound>
O=C(c1c(O)cc(O)cc1OCc1ccccc1)N1CCc2ccc(CNC3COC3)cc2C1 [Example 84]

>  <IC50>
1000 to 10000 nM

$$$$
>  <Compound>
COCCOc1cc2c(c(N[C@@H]3CCOC3)c1)CN(C(=O)c1c(O)cc(O)cc1OCC1CC1)CC2 [Example 141]

>  <IC50>
1000 to 10000 nM

$$$$
>  <Compound>
CN1CCC(Oc2cc3c(c(N[C@@H]4CCOC4)c2)CN(C(=O)c2c(O)cc(O)cc2OCc2ccccc2)CC3)CC1 [Example 138]

>  <IC50>
< 1000 nM

$$$$
>  <Compound>
N#Cc1cccc2c1CN(C(=O)c1c(O)cc(O)cc1OCc1ccccc1)C2 [Example 91]

>  <IC50>
1000 to 10000 nM

$$$$

IN: Dear colleague, please send me the reported IC50 for N#CC1CN(c2cccc3c2CN(C(=O)c2c(O)cc(O)cc2OCc2ccccc2)C3)C1 [Example 92] when you can.
OUT: 1000 to 10000 nM

IN: Dear colleague, please send me the reported IC50 for CN1C[C@H](Nc2cccc3c2CN(C(=O)c2c(O)cc(O)cc2OCc2ccccn2)CC3)CC1=O [Example 59] when you can.
OUT: < 1000 nM

----------
- Tgt: recombinant N-terminal MLH1 (residues 15-340) (Homo sapiens, UniProt P40692)
- Construct: recombinant N-terminal MLH1 (residues 15-340)
- Sequence (P40692 15-340): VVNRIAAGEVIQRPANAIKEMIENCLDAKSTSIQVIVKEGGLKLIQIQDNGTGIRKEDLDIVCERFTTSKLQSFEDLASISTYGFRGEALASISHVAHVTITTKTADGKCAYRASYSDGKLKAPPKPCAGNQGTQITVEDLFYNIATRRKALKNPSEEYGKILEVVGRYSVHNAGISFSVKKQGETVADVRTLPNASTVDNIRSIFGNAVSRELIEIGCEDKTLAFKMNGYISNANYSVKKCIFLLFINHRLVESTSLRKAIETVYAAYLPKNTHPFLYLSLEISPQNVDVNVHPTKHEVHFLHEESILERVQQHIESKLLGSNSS
- Assay Procedure: Fluorescence Polarisation Assay for MLH1
- Assay type: binding
- Measurement Setup: fluorescence polarisation probe displacement; 100 nM N-terminal MLH1, 5 nM probe compound
Measurement Type: IC50

>  <Molecule>
Cc1ncncc1Nc1cccc2c1CN(C(=O)c1c(O)cc(O)cc1OCc1ccccc1)CC2

>  <IC50>
1000 to 10000 nM

$$$$
>  <Molecule>
CNc1cc(OCCOC)cc2c1CN(C(=O)c1c(O)cc(O)cc1OCc1ccccc1)CC2

>  <IC50>
1000 to 10000 nM

$$$$
>  <Molecule>
O=C(c1c(O)cc(O)cc1OCc1ccccc1)N1Cc2ccccc2C(O)C1 (single isomer, unassigned) [Example 50]

>  <IC50>
1000 to 10000 nM

$$$$
>  <Molecule>
O=C(c1c(O)cc(O)cc1OCc1ccccc1)N1Cc2cccc(N[C@H]3CCOC3)c2C1

>  <IC50>
< 1000 nM

$$$$
>  <Molecule>
Nc1cccc2c1CN(C(=O)c1c(O)cc(O)cc1OCc1ccccc1)C2

>  <IC50>
< 1000 nM

$$$$
>  <Molecule>
CN(C)Cc1ccc2c(c1)CN(C(=O)c1c(O)cc(O)cc1OCc1ccccc1)CC2

>  <IC50>
1000 to 10000 nM

$$$$
>  <Molecule>
Cn1ccc(Nc2cccc3c2CN(C(=O)c2c(O)cc(O)cc2OCc2ccccc2)CC3)cc1=O

>  <IC50>
1000 to 10000 nM

$$$$

Attention now turns to another entry.
IN: Tell me IC50 of O=C(c1c(O)cc(O)cc1OCc1ccccc1)N1Cc2cccc(CN3CCOCC3)c2C1 when tested on recombinant N-terminal MLH1 (residues 15-340) (Homo sapiens, UniProt P40692).
OUT: 1000 to 10000 nM
